Record form. Attribute: pEC50. Fill in for each entry.
Biological target: FXR (Homo sapiens (Human), UniProt Q96RI1)
Sequence (Q96RI1 262-486): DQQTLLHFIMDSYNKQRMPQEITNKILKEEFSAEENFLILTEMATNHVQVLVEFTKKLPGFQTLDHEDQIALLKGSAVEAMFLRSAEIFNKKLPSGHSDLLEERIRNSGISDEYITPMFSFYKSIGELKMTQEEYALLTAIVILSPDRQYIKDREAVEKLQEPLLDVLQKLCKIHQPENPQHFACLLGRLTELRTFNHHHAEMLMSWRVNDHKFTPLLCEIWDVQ
Experiment: FXR EC50 (FXR agonist activity reported with each example)
Assay type: cell-based
Answers are plain numbers, as −log10 of the molar value.

// below: answered compounds
{"Compound": "O=C(O)c1ccc2nc(C34CCC(OCc5c(-c6ccccc6C(F)(F)F)noc5C5CC5)(CC3)CC4)sc2c1 [Example 6]", "pEC50": 5.38}
{"Compound": "CCOc1cc(C(=O)O)nc2c(F)cc(OCC34CCC(OCc5c(-c6c(Cl)cncc6Cl)noc5C5CC5)(CC3)CC4)cc12 [Example 306]", "pEC50": 7.96}
{"Compound": "O=C(O)c1ccc(C#CC23CCC(OCc4c(-c5c(Cl)cncc5Cl)noc4C4CC4)(CC2)CC3)c2ncccc12 [Example 412]", "pEC50": 8.00}
{"Compound": "O=C(O)Cc1ccccc1OCC12CCC(OCc3c(-c4c(Cl)cccc4Cl)noc3C3CC3)(CC1)CC2 [Example 116]", "pEC50": 6.05}

Take each entry in turn and give its pEC50.
1. O=C(O)c1cccc2cc(OCC34CCC(OCc5c(-c6c(Cl)cncc6Cl)noc5C5CC5)(CC3)CC4)cnc12 [Example 352]
2. O=C(O)c1ccc2nc(C34CCC(OCc5c(-c6ccccc6OC(F)(F)F)noc5C5CC5)(CC3)CC4)sc2c1 [Example 38]

[7.26, 6.44]

* * *

Exercise: for every item that follows, state its recorded pEC50.
Molecular target: FXR (Homo sapiens (Human), UniProt Q96RI1)
Assay: FXR EC50 (FXR agonist activity reported with each example)
Format: cell-based
Numbers only, as −log10 of the molar value.

{"Molecule": "O=C(O)C1CC1c1noc(C23CCC(OCc4c(-c5c(Cl)cncc5Cl)noc4C4CC4)(CC2)CC3)n1 (centres unmarked) [Example 270]", "pEC50": 5.82}

Answer for every listed entry: what is its pEC50? The entries follow.
1. O=C(O)c1cc(-c2noc(C34CCC(OCc5c(-c6c(Cl)cncc6Cl)noc5C5CC5)(CC3)CC4)n2)ccn1 [Example 249]
2. O=C(O)c1cccc(-c2noc(C34CCC(COCc5c(-c6ccccc6OC(F)(F)F)noc5C5CC5)(CC3)CO4)n2)c1 [Example 213]
3. COc1ccc(-c2noc(C34CCC(OCc5c(-c6c(Cl)cncc6Cl)noc5C5CC5)(CC3)CC4)n2)c(F)c1C(=O)O [Example 250]
4. O=C(O)c1ccc(OC2COC2)c2nc(C34CCC(OCc5c(-c6c(Cl)cncc6Cl)noc5C5CC5)(CC3)CC4)ccc12 [Example 406]
5. O=C(O)c1cc(C23CCC(COCc4c(-c5ccccc5OC(F)(F)F)noc4C4CC4)(CC2)CO3)ccc1F [Example 207]
6. COc1cc(-c2noc(C34CCC(OCc5c(-c6c(Cl)cncc6Cl)noc5C5CC5)(CC3)CC4)n2)cc(C(=O)O)c1OC [Example 243]
7. O=C(O)c1cc(C(F)(F)F)c2ccc(C34CCC(OCc5c(-c6c(Cl)cncc6Cl)noc5C5CC5)(CC3)CC4)nc2c1 [Example 422]

6.62
5.92
6.14
7.27
6.24
6.92
6.44

Quick request: pEC50 for each listed item, please.
1. O=C(O)c1cnc2ccc(OCC34CCC(OCc5c(-c6c(Cl)cncc6Cl)noc5C5CC5)(CC3)CC4)nn12 [Example 466]
2. Cn1nc(C(=O)O)c2ccc(C34CCC(OCc5c(-c6c(Cl)cncc6Cl)noc5C5CC5)(CC3)CC4)nc21 [Example 365]

1: 6.41; 2: 7.31

Give me pEC50 for each of these molecules, listed below.
1. COc1ccc(-c2noc(C34CCC(OCc5c(-c6c(Cl)cncc6Cl)noc5C5CC5)(CC3)CC4)n2)cc1C(N)=O [Example 240]
2. O=C(O)c1cccn2c(C#CC34CCC(OCc5c(-c6c(Cl)cncc6Cl)noc5C5CC5)(CC3)CC4)cnc12 [Example 397]
3. O=C(O)c1cccc(OCC23CCC(OCc4c(-c5c(Cl)cccc5Cl)noc4C4CC4)(CC2)CC3)c1 [Example 82]
4. O=C(O)c1cc(F)cc2nc(OCC34CCC(OCc5c(-c6c(Cl)cncc6Cl)noc5C5CC5)(CC3)CC4)sc12 [Example 463]
5. O=C(O)c1cccc(NC(=O)C23CCC(C=Cc4c(-c5c(Cl)cccc5Cl)noc4C4CC4)(CC2)CC3)c1 [Example 190]
6. O=C(O)c1ccn2c(C#CC34CCC(OCc5c(-c6c(Cl)cncc6Cl)noc5C5CC5)(CC3)CC4)cnc2c1 [Example 393]
7. O=C(O)c1cc(-c2noc(C34CCC(/C=C/c5c(-c6c(Cl)cncc6Cl)noc5C5CC5)(CC3)OC4)n2)cc(C(F)(F)F)c1 [Example 494]

1. 6.77
2. 7.32
3. 7.66
4. 7.39
5. 5.46
6. 6.57
7. 6.89
